The following sequences are shown together with reported apparent KD of K4 kissing-loop reporter values.
# Test system: K4 kissing-loop RNA reporter;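 note: bound reporter read as fluorescence of individual clusters on recovered sequencing chips by microscopy, with normalized cluster intensities fitted with a binding model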
# Test name: apparent KD of K4 kissing-loop reporter; higher = weaker reporter binding
# Condition details: Eterna round: R107; input ligand: tryptophan 2.4 mM
Quick note: give the figure in nM, leave out the unit.

Field: example entries. Status: answers known.
UCACGUGCCAGUGAUGUUGGCGUACGUGAUACCAGAACAAUAAAGUUCCCUUGGCAGCACAAAUAUGCCAAGUUAGAUGUAUGAU [Exclusion Theophylline A GF 3] ... 113
AAACUUGCAGUGAUGUUGCAAGUAGGUGAUACCAGCAUCGAAAGAUGCCCUUGGCAGCACCAAAACAUCACUUAGGUGCUGUCUA [(H1)-(H2)-(T1)-(T2)-(H)'-(T)'_Design6] ... 614
GUGACACGUGAUGAUACCAGUCCACGGAAGUUCCUUAGUGAUGUUAACCUUGCUUUUUCUGACCCUUGGCAGCAUUAGUUGAGAA [theeternabot_sameState_KL_Theo_B_42] ... 237
AAUUUAGUGACGGCCGCCACUAUGGUGAUUUAUUUGUUUGAGUGAUGUUUUGAUGUUUGAUUUUGUAGGACCGGGUUAGGUGAUG [aaacmullin] ... 279
CGCAGUGAUGUUGCUAUUAUUCUUGGUUAACGAGGACCGGUACGGCCGCCACUCGGUUUCUAUCUAAUCCAGUGUUUUUUUGAGU [#24 K4 Tryptophan A Exclusion] ... 246

Here's the next entry for you.
Query block: Lab note: K4 kissing-loop RNA reporter assay, enter apparent KD of K4 kissing-loop reporter for GUAUCGCUAGGAGGAUAUUUCAAUUCGCCUAUAAAAGGUGAUACGGAGUGAUGUUCCGAUUUACGGAAAGAAGGCCUAGUGAUAC [FMN B 9] here
Result block: 273
